Hello, the source for this data is patent US20100048468A1, in case you need it.

Below, each entry is listed alongside its reported pIC50.
- TARGET_ENTITY: T1, human GLP-1 receptor (human, UniProt P43220 24-463)
- T1 construct: whole, on cells
- EXPERIMENTAL_DETAILS: 125I-GLP-1 displacement, membranes of CHOK1 cells expressing human GLP-1 receptor
Non-standard residues stand in square brackets, D forms with d. Primed or numbered codes have the meaning given here. No end group written: not given here. mPEG40k‑branched = branched 40 kDa PEG (2 × 20 kDa) maleimide, attached to the Cys thiol; mPEG 20 kDa = 20 kD mPEG-maleimide, thioether-linked to the Cys; Aib′ = alpha aminobutyric acid (source's wording)
As a rule, pIC50 stands for the negative log10 of the concentration, concentration in M.

Solved entries:
binder="HGEGTFTSDVSSYLE[Aib′]QAAKEFIAWLVKGRGC(mPEG40k‑branched)SG-NH2 [cgGLP-29 (SEQ ID NO: 22 + 40k branched PEG)]" recorded_value=6.10
binder="H[Aib′]EGTFTSDVSSYLE[Aib′]QAAKEFIAWLVKGRGC(mPEG 20 kDa)SG [cgGLP-20 (SEQ ID NO: 25 + 20k mPEG)]" recorded_value=7.52

Below: the item to evaluate.
## Input Any idea what pIC50 was measured for HGEGTFTSDVSSYLE[Aib′]QAAKEFIAWLVKGRGC(mPEG‑maleimide 20 kDa)A-NH2 (also called cgGLP30) [mgGLP32 & mgGLP-20 (SEQ ID NO: 18 + 20k PEG)] ?
## Output 7.25
